Target: CGRP1 receptor (CRLR/RAMP1 complex) of human neuroblastoma SK-N-MC cells (human, UniProt Q16602 23-461; O60894 27-148)
Sequence (Q16602 23-461, chain 1 of 2): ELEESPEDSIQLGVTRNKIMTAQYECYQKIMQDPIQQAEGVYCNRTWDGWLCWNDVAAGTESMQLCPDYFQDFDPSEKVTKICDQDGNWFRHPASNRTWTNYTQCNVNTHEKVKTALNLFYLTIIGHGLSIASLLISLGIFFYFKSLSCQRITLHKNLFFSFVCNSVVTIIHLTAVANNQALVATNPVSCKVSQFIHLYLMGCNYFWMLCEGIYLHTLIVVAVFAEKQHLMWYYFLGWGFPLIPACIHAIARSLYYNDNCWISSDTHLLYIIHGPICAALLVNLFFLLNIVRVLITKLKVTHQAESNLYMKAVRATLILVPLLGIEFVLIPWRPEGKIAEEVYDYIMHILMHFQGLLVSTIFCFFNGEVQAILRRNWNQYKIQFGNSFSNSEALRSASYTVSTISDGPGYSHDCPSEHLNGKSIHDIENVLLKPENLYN
Sequence (O60894 27-148, chain 2 of 2): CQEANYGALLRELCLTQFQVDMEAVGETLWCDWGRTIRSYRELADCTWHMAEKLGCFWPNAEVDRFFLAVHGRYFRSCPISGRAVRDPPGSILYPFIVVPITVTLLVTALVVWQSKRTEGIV
Assay: cell-based or functional assay
Square brackets hold non-standard residues; d marks the D form. 1Nal = N[C@@H](Cc1cccc2ccccc12)C(=O)O; hArg = N=C(N)NCCCC[C@H](N)C(=O)O; hCit = NC(=O)NCCCC[C@H](N)C(=O)O; Cit = NC(=O)NCCC[C@H](N)C(=O)O
experimental_readout: PEG-peptide IC50

Return reported PEG-peptide IC50; argument: WVTHXLAGLLSRSGGVVRKNFVPTDVGPFAF (Ac-WVTH[hArg]LAGLLSRSGGVVRKNFVPTDVGPFAF-NH2; PEG-conjugated (Table 2C: in most cases at Lys^25)) [PEG-peptide of SEQ ID NO 865] 0.36 nM

What does the data say about its PEG-peptide IC50? Entry: Ac-[1Nal]VTH[Cit]LAGLLS[Cit]SGGVVRKNFVPTDVGPFAF-NH2 (also: PEG-conjugated, in most cases at Lys25) [PEG-peptide of SEQ ID NO 872] 11 nM

Which value of PEG-peptide IC50 has been reported for Ac-WVTH[hCit]LAGLLS[hArg]SGGVV[hArg]KNFVPTDVGPFAF-NH2 (also: PEG-conjugated, in most cases at Lys25) [PEG-peptide of SEQ ID NO 888] in the records? 2.11 nM

Need PEG-peptide IC50, item Ac-WVTHRLAGLLSRPGGVVRKNFVPTDVGPFAF-NH2 (also: PEG-conjugated, in most cases at Lys25) [PEG-peptide of SEQ ID NO 860] 16.7 nM

Request the reported PEG-peptide IC50 associated with Ac-WVTH[Cit]LAGLASRPGGVVRKNFVPTDVGPFAF-NH2 (also: PEG-conjugated, in most cases at Lys25) [PEG-peptide of SEQ ID NO 869] 565 nM

Dear colleague, I am looking for the recorded PEG-peptide IC50 of the following binder: Ac-WVTHRLAGLLSQSGGVVRKNFVPTDVGPFAF-NH2 (also: PEG-conjugated, in most cases at Lys25) [PEG-peptide of SEQ ID NO 856] 0.46 nM

Would you kindly share the measured PEG-peptide IC50 for Ac-WVTH[Cit]LAGLLSRPGGVVRKNFVPTDVGPFAF-NH2 (also: PEG-conjugated, in most cases at Lys25) [PEG-peptide of SEQ ID NO 868] ? 108 nM
